- Protocol: Selectivity index, CC50 for HeLa cells to IC50 for Plasmodium falciparum
- Format: functional
Experimental readout: Ratio CC50/IC50
Lab note: write the figure by itself, no unit.

Illustrative cases are given below, each with its answer.
Compound: O=C(c1ccccc1)c1cc(Cl)ccc1NC(=O)C(c1ccccc1)N1CCOCC1 (racemic)
Value reported: 6

Compound: O=C(c1ccccc1)c1cc(Cl)ccc1NC(=O)C(c1ccc(-c2ccccc2)cc1)N1CCN(CCO)CC1 (racemic)
Value reported: 59

Lab note: next compound to report on.
q: Consider the compound COC(=O)CN1CCN(C(C(=O)Nc2ccc(Cl)cc2C(=O)c2ccccc2)c2ccccc2)CC1 (racemic) and give its measured Ratio CC50/IC50.
a: 33

Provenance of the data: ChEMBL document CHEMBL1759987
